Origin of values: patent US20230314443A1

- Target Under Test: UniProt:P35637
- Sequence (P35637 whole entry): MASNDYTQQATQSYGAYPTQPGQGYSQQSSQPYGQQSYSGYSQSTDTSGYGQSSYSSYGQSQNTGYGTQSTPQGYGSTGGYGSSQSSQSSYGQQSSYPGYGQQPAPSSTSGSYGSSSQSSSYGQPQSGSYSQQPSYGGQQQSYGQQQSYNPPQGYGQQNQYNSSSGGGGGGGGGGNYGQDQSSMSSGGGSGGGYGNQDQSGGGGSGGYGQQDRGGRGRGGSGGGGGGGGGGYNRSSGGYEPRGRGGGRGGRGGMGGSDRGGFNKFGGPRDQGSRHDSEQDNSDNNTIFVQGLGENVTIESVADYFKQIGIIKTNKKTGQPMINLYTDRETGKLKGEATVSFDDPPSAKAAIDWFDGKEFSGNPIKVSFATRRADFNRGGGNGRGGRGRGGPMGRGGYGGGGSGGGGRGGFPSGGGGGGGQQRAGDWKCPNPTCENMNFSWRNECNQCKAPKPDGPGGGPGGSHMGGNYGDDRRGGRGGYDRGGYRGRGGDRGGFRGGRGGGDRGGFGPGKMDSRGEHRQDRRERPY
Endpoint Label: Kd (µM)
One number for each entry, in µM.

Task: Look up and report measured Kd for this entry: CCN(CC)c1ccc2c(-c3ccccc3C(=O)O)c3ccc(=[N+](CC)CC)cc-3oc2c1
Result: 17.1
